recordedMetric: melting point

Record excerpt, results attached:
CC1Cc2cc3nc(N)n[n+]([O-])c3cc2C1 (stereo not drawn) [Compound 94] = 275 to 277 °C
N#CC1CCN(CCCNc2nc3cc4c(cc3[n+]([O-])n2)CCC4)C1 (stereo not drawn) [Compound 56] = 111 to 112 °C
COC1CCN(CCCNc2nc3cc4c(cc3[n+]([O-])n2)CCC4)CC1 [Compound 58] = 120 to 121 °C
CCN(CC)CCNc1n[n+]([O-])c2cc3c(cc2[n+]1[O-])OCC3 [Compound 210] = 187 to 190 °C

Problem: // query melting point value for entry CN(C)CCNc1nc2cc3c(cc2[n+]([O-])n1)CCC3 [Compound 22]
Solution: 122 to 124 °C

Problem: // query melting point value for entry CC1Cc2cc3c(cc2C1)[n+]([O-])c(CCCO)n[n+]3[O-] (stereo not drawn) [Compound 105]
Solution: 130 to 131 °C

Problem: // query melting point value for entry COC1CCN(CCNc2n[n+]([O-])c3cc4c(cc3[n+]2[O-])CCC4)CC1 [Compound 43]
Solution: 148 to 151 °C

Problem: // query melting point value for entry CN(C)CCNc1n[n+]([O-])c2cc3c(cc2[n+]1[O-])CCCC3 [Compound 178]
Solution: 148 to 151 °C

Problem: // query melting point value for entry [O-][n+]1nc(I)nc2cc3c(cc21)CC(CCO)C3 (stereo not drawn) [Compound 158]
Solution: 96 to 99 °C

###

Reported HCR values follow for various compounds
Test system: human colon carcinoma HT29
procedureDetails: Proliferation assay (IC50) under aerobic and hypoxic conditions, HT29
Assay type: cell-based
conditionNotes: hypoxic cytotoxicity ratio = IC50 aerobic/IC50 hypoxic
I only need the number, thanks.

CN(C)CCNc1n[n+]([O-])c2c3c(ccc2[n+]1[O-])CCCC3 = 18
[O-][n+]1nc(NCCN2CCOCC2)[n+]([O-])c2cc3c(cc21)CCC3 = 17
COC1CN(CCCNc2n[n+]([O-])c3cc4c(cc3[n+]2[O-])CCC4)C1 = 102
COCCCN(C)CCNc1n[n+]([O-])c2cc3c(cc2[n+]1[O-])CCC3 = 52
[O-][n+]1nc(NCCCN2CCOCC2)[n+]([O-])c2cc3c(cc21)CCC3 = 20
CN(C)CCNc1n[n+]([O-])c2c3c(ccc2[n+]1[O-])OCCC3 = 14

Problem: // query HCR value for entry [O-][n+]1nc(CCCN2CCCC2)[n+]([O-])c2cc3c(cc21)CCC3
Solution: 249

Problem: // query HCR value for entry CCc1n[n+]([O-])c2cc3c(cc2[n+]1[O-])CC(CO)C3 (centres unmarked)
Solution: 45

###

Test system: human colon carcinoma HT29
procedureDetails: Proliferation assay (IC50) under aerobic and hypoxic conditions, HT29
Type: cell-based
conditionNotes: Homo sapiens, HT-29, hypoxic (anaerobic chamber, <0.001% O2), 4 h drug exposure, then 6 days growth, sulforhodamine B, read-out: IC50 (μM) hypoxic
recordedMetric: IC50 (µM)
Express the result in µM but write the number alone.

Record excerpt, results attached:
CCN(CC)CCNc1n[n+]([O-])c2cc3c(cc2[n+]1[O-])OCC3 = 9.6
CC1Cc2cc3c(cc2C1)[n+]([O-])c(NCCN(C)C)n[n+]3[O-] (stereo not drawn) = 3.5
COC1CN(CCNc2n[n+]([O-])c3cc4c(cc3[n+]2[O-])CCC4)C1 = 3.4
CN(C)CCNc1n[n+]([O-])c2c3c(ccc2[n+]1[O-])OCCC3 = 4.1
CCN(CC)CCNc1n[n+]([O-])c2c3c(ccc2[n+]1[O-])CCC3 = 4.2

In the following, a different compound is considered.
Problem: // query IC50 value for entry [O-][n+]1nc(NCCN2CCCCC2)[n+]([O-])c2ccc3c(c21)CCC3
Solution: 4.9
